system: Italian ryegrass (Lolium multiflorum); test: Test C pre-/postemergence plant response; assay type: in vivo; conditions: Preemergence, 62 g ai/ha; scale 0 to 100, 0 no effect, 100 complete control
EXPERIMENTAL ENDPOINT: Plant response rating, Ryegrass, Italian

Example entries and their recorded answers appear below.
Cc1cc(-c2ccc(Cl)cc2)nn1-c1c(OC(=O)Oc2ccccc2)cnn(C)c1=O    100
CCc1cc(-c2ccc(Cl)cc2)nn1-c1c(O)cnn(C)c1=O    100

Q: Please state recorded Plant response rating, Ryegrass, Italian (tested on Italian ryegrass (Lolium multiflorum)) of CCCc1cc(-c2ccc(Cl)cc2)nn1-c1c(O)cnn(C)c1=O
Result: 98

* * *

Test system: giant foxtail (Setaria faberii)
Assay: Test B pre-/postemergence plant response
Format: in vivo
Conditions: Postemergence, 62 g ai/ha; scale 0 to 100, 0 no effect, 100 complete control
Source text: […] Plant species in the flooded paddy test consisted of rice (Oryza sativa), umbrella sedge (Cyperus difformis), ducksalad (Heteranthera limosa) and barnyardgrass (Echinochloa crus-galli) grown to the 2-leaf stage for testing. […] Treated plants and controls were maintained in a greenhouse for 13 to 15 days, after which time all species were compared to controls and visually evaluated. […]
EXPERIMENTAL ENDPOINT: Plant response rating, Foxtail, Giant
Provide a numeric answer; units are not to be included.

Example entries and their recorded answers appear below.
Cc1cc(-c2ccc(Cl)cc2)nn1-c1c(OC(=O)c2ccccc2Cl)cnn(C)c1=O    100
CCCc1cc(-c2ccc(C(F)(F)F)cc2)nn1-c1c(O)cnn(C)c1=O    100
Cc1cc(-c2ccc(C(F)(F)F)c(F)c2)nn1-c1c(O)c(C(F)(F)F)nn(C)c1=O    100

Now turn to the next compound.
Q: // lookup Plant response rating, Foxtail, Giant for COc1nn(C)c(=O)c(-n2nc(-c3ccc(Br)cc3)cc2C)c1O
Result: 100

* * *

Measured Plant response rating, Foxtail, Green accompanies every entry in the list below.
test system: green foxtail (Setaria viridis); test: Test B pre-/postemergence plant response; type: in vivo; conditions: Postemergence, 16 g ai/ha; scale 0 to 100
Provide a numeric answer; units are not to be included.

Q: // lookup Plant response rating, Foxtail, Green for CCc1cc(-c2ccc(C(F)(F)F)cc2)nn1-c1c(OC(=O)OC(C)C)cnn(C)c1=O
Result: 85

Q: Now the same for Cc1cc(-c2ccc(Cl)cc2)nn1-c1c(OC(=O)c2cccc(Cl)c2)cnn(C)c1=O
Result: 60

Q: Now the same for CCc1cc(-c2ccc(Cl)cc2)nn1-c1c(O)cnn(C)c1=O
Result: 100

Q: Now the same for CCc1cc(-c2ccc(C(F)(F)F)cc2)nn1-c1c(O)c(OC)nn(C)c1=O
Result: 100

* * *

tested on: lambsquarters (Chenopodium album); experiment: Test B pre-/postemergence plant response; type: in vivo; conditions: Preemergence, 16 g ai/ha; scale 0 to 100 (0 no effect, 100 complete control)
Measured Plant response rating, Lambsquarters accompanies every entry in the list below.
Provide a numeric answer; units are not to be included.

Example entries and their recorded answers appear below.
Cc1cc(-c2ccc(Cl)cc2)nn1-c1c(OC(=O)CC(C)C)cnn(C)c1=O [Compound 37]    0
CCc1cc(-c2ccc(C(F)(F)F)cc2)nn1-c1c(OC(=O)OC(C)C)cnn(C)c1=O [Compound 12]    0
CCCc1cc(-c2ccc(Cl)cc2)nn1-c1c(O)cnn(C)c1=O [Compound 43]    0
Cn1ncc(O)c(-n2nc(-c3ccc(Cl)cc3)cc2C2CC2)c1=O [Compound 45]    0

Now turn to the next compound.
Q: // lookup Plant response rating, Lambsquarters for Cc1cc(-c2ccc(Cl)cc2)nn1-c1c(OS(=O)(=O)C(C)C)cnn(C)c1=O [Compound 50]
Result: 65
